Exercise: state measured log10 of IC50 for each of the compounds provided.
- System: peripheral blood mononuclear cells (PBMC) with allogeneic PBMC or RPMI1788 stimulator cells
- protocol-notes: Mixed lymphocyte reaction (MLR) test, [3H]-thymidine incorporation
- Type: cell-based, human
- experimental-setup: Table 1; 5 days incubation + 16 h thymidine
Quick note: numbers are log10 of IC50, with µM as the unit.

Examples with their reported log10 of IC50 follow.
Cn1c(=O)c2ncc(/C=C/c3ccccc3)nc2n(C)c1=O [Example 26, 1,3-dimethyl-7-(E)-styryllumazine]	1.70
Cn1c(=O)c2nc(Cl)c(C#N)nc2n(C)c1=O	2.06
CCCCN(CCCC)c1nc2c(nc1C#N)c(=O)n(C)c(=O)n2C	1.08
CCOC(=O)c1nc2c(=O)n(C)c(=O)n(C)c2nc1NCC(C)(C)C	1.20
Cn1c(=O)c2nc(C#N)c(NC3CCCCC3)nc2n(C)c1=O	1.18
Cn1c(=O)c2ncc(/C=C/c3ccncc3)nc2n(C)c1=O	1.88

Hey, can you go through the list below and give me log10 of IC50 for every item?
1. Cn1c(=O)c2nc(C#N)c(-n3ccnc3)nc2n(C)c1=O
2. COC(=O)C=C(OC)c1cnc2c(n1)c(=O)n(C)c(=O)n2C
3. Cn1c(=O)c2nc(C=Cc3ccc(OC(F)(F)F)cc3)cnc2n(C)c1=O

1.68
1.85
0.95

----------
- Tested on: peripheral blood mononuclear cells (PBMC) with allogeneic PBMC or RPMI1788 stimulator cells
- protocol-notes: Mixed lymphocyte reaction (MLR) test, [3H]-thymidine incorporation
- Format: cell-based, human
- experimental-setup: Table 1; 5 days incubation + 16 h thymidine
Label Fulfilled when IC50 < 30 µM; otherwise Not fulfilled.

// known answers, use as guide
CCCCNc1nc2c(nc1C(=O)OCC)c(=O)n(C)c(=O)n2C [Example 60]	Fulfilled
Cn1c(=O)c2nc(O)c(C=O)nc2n(C)c1=O [Example 46, 6-hydroxy-7-formyl-1,3-dimethyl-lumazine]	Not fulfilled
Cn1c(=O)c2nc(C=Cc3ccccc3)cnc2n(C)c1=O [Example 79, 6-[2-phenylethenyl]-1,3-dimethyllumazine]	Fulfilled
Cn1c(=O)c2nc(C=O)c(N3CCSCC3)nc2n(C)c1=O [Example 69]	Not fulfilled
Cn1c(=O)c2nc(Cl)c(N3CCCCC3)nc2n(C)c1=O [Example 75]	Not fulfilled

Below 30 µM on IC50? Entry Cn1c(=O)c2nc(C#N)c(SCc3ccccc3)nc2n(C)c1=O [Example 59]
Not fulfilled

Moving on to COC(=O)C(Br)C(Br)c1cnc2c(n1)c(=O)n(C)c(=O)n2C (centres unmarked) [Example 11]
Fulfilled

----------
- Tested on: peripheral blood mononuclear cells (PBMC) with allogeneic PBMC or RPMI1788 stimulator cells
- protocol-notes: Mixed lymphocyte reaction (MLR) test, [3H]-thymidine incorporation
- Assay type: cell-based, human
- experimental-setup: Table 1; 5 days incubation + 16 h thymidine
pIC50: −log10 of the molar value.
Label rule, in plain words: pIC50 of 4 and up is Yes, under 4 is No.

Below, 5 compounds whose answers are already recorded.
Cn1c(=O)c2nc(C(Cl)Cl)c(Cl)nc2n(C)c1=O	Yes
Cn1c(=O)c2nc(-c3ccccc3)c(S)nc2n(C)c1=O	Yes
Cn1c(=O)[nH]c(=O)c2nc(-c3ccccc3)c(-c3ccccc3)nc21	Yes
Cn1c(=O)c2nc(-c3ccccc3)c(Cl)nc2n(C)c1=O	Yes
Cn1c(=O)c2ncc(/C=C/c3cccnc3)nc2n(C)c1=O	Yes

Does Cn1c(=O)c2nc(C=C[N+](=O)[O-])cnc2n(C)c1=O have a reported pIC50 of at least 4?
Yes

Cn1c(=O)c2nc(C#N)c(NCc3ccccc3)nc2n(C)c1=O ?
No

Then this compound: Cc1nc2c(nc1N1CCCC1)c(=O)n(C)c(=O)n2C
No

Then this compound: CC(=O)Nc1nc2c(nc1C#N)c(=O)n(C)c(=O)n2C
No

Another compound to look at: Cn1c(=O)c2nc(C=Cc3ccc(C(F)(F)F)cc3)cnc2n(C)c1=O [Example 77]
Yes

What would you report for Cn1c(=O)c2nc(C=Cc3ccc(C(F)(F)F)cc3)cnc2n(C)c1=O [Example 78] ?
Yes

Now the same for COC(=O)/C=C/c1cnc2c(=O)n(C)c(=O)n(C)c2n1
Yes
